All figures here come from patent US20240279318A1.

- assayed_system: T1, AFP158/HLA-A*02:01 complex (human)
- T1 construct: biotinylated on the BSP by BirA for ELISA and panning; also called biotinylated AFP158/HLA-A*02:01 complex; Bio-AFP158
- protocol: SPR, crude scFv captured;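 also: Peptide–MHC complex flowed at several concentrations over sensorchip-captured scFv, Kd derived from on- and off-rates obtained from the association and dissociation curves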
Threshold 0.9 µM. Kd below it: Satisfied. Kd at it or above: Not satisfied.

AS170036 VL1VH1-VHG56Y (scFv) scFv: QSALTQPRSVSGSPGQSVTISCAGTSSDVGSENYVSWYQQHPGKAPKLMIYQVNKRASGVPDRFSGSKSGNTASLTISGLQAEDEADYYCASYRSSDHNIVFGGGTKLTVLGGGGSGGGGSGGGGSEVQLVESGGGLVQPGGSLRLSCAASGFTFSSYAMSWVRQAPGKGLEWVSTINSGTYSPYYADSVKGRFTISRDNSKNTLYLQMNSLRAEDTAVYYCAKNFFDGSWFLGPPAMDYWGQGTLVTVSSHHHHHH : Satisfied
AS170036 VL1VH1 HG108H (scFv) scFv: QSALTQPRSVSGSPGQSVTISCAGTSSDVGSENYVSWYQQHPGKAPKLMIYQVNKRASGVPDRFSGSKSGNTASLTISGLQAEDEADYYCASYRSSDHNIVFGGGTKLTVLGGGGSGGGGSGGGGSEVQLVESGGGLVQPGGSLRLSCAASGFTFSSYAMSWVRQAPGKGLEWVSTINSGTGSPYYADSVKGRFTISRDNSKNTLYLQMNSLRAEDTAVYYCAKNFFDGSWFLHPPAMDYWGQGTLVTVSSHHHHHH : Satisfied
AS170036 VL1VH1-VHG108E (scFv) scFv: QSALTQPRSVSGSPGQSVTISCAGTSSDVGSENYVSWYQQHPGKAPKLMIYQVNKRASGVPDRFSGSKSGNTASLTISGLQAEDEADYYCASYRSSDHNIVFGGGTKLTVLGGGGSGGGGSGGGGSEVQLVESGGGLVQPGGSLRLSCAASGFTFSSYAMSWVRQAPGKGLEWVSTINSGTGSPYYADSVKGRFTISRDNSKNTLYLQMNSLRAEDTAVYYCAKNFFDGSWFLEPPAMDYWGQGTLVTVSSHHHHHH : Satisfied
AS170036 VL1VH1 HP109T (scFv) scFv: QSALTQPRSVSGSPGQSVTISCAGTSSDVGSENYVSWYQQHPGKAPKLMIYQVNKRASGVPDRFSGSKSGNTASLTISGLQAEDEADYYCASYRSSDHNIVFGGGTKLTVLGGGGSGGGGSGGGGSEVQLVESGGGLVQPGGSLRLSCAASGFTFSSYAMSWVRQAPGKGLEWVSTINSGTGSPYYADSVKGRFTISRDNSKNTLYLQMNSLRAEDTAVYYCAKNFFDGSWFLGTPAMDYWGQGTLVTVSSHHHHHH : Not satisfied
AS170036 VL1VH1 HD102Q (scFv) scFv: QSALTQPRSVSGSPGQSVTISCAGTSSDVGSENYVSWYQQHPGKAPKLMIYQVNKRASGVPDRFSGSKSGNTASLTISGLQAEDEADYYCASYRSSDHNIVFGGGTKLTVLGGGGSGGGGSGGGGSEVQLVESGGGLVQPGGSLRLSCAASGFTFSSYAMSWVRQAPGKGLEWVSTINSGTGSPYYADSVKGRFTISRDNSKNTLYLQMNSLRAEDTAVYYCAKNFFQGSWFLGPPAMDYWGQGTLVTVSSHHHHHH : Not satisfied
